Target: T1, human CD40L expressed on CHO cells (human, UniProt P29965 1-261)
T1 sequence: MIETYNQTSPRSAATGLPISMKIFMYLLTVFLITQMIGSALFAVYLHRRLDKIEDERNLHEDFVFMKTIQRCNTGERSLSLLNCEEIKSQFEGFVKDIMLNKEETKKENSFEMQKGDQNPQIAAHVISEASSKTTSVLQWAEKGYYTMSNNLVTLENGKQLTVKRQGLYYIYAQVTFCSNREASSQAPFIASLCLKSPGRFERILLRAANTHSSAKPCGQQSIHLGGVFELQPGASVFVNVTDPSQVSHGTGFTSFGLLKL
Experiment: cell-based or functional assay
OBSERVED_PROPERTY: Average IC50 (M), B-cell proliferation assay
The reply should be a number in M, with the unit left off.

Use these answered entries as a reference point.
- C0100046B03 (VHH, Monovalent Nanobody; tag of the monovalent form not spelled out; also called C01000046B03) VHH: EVQLVESGGGLVQAGGSLRLSCAASGRTPLNYHMAWFRQAPGKEREFVAAISSLLGSTDYSDSLKDRFTISRDNAKATLYLRMNNLKPEDTAVYYCAARETTHYSTSDRVNEMRHYDYWGQGTLVTVSS: 2.18e-09
- C0100028B02 (VHH, Monovalent Nanobody produced in P. pastoris (pAX205); Detected with anti-FLAG reagents, but the tag of the monovalent form is not spelled out; also called C01000028B02) VHH: EVQLVESGGGLVQPGGSLRLSCAASGFTLEYYAIGWFRQAPGKEREGVSCISSEGSTSYTDSVKGRFTISRDNAKNTVYLQMNSLKPEDTAVYYCATDPDRGFLGSSCDTQSHQYDYWGQGTLVTVSS: 1.15e-09
- C0100044B07 (VHH, Monovalent Nanobody; tag of the monovalent form not spelled out; also called C01000044B07) VHH: EVQLVESGGGLVQPGGRLRLSCAASGFTLDYYALAWFRQAPGKEREGVSCISSSEGSTDYADYADSVKGRFTISRDTAKNTVYLQMNNLKPEDTAVYYCATDETTFFSGSCTLSAATFGSWGQGTLVTVSS: 9.71e-10

Now turn to the next binder.
In: Could you please provide reported Average IC50 (M), B-cell proliferation assay for C0100029C10 (VHH, Monovalent Nanobody; tag of the monovalent form not spelled out; also called C01000029C10) VHH: EVQLVESGGGLVQPGGSLRLSCAASGFTLDYYALGWFRQAPGKEREGVSCISSTESSDGSTYYADSVKGRFTISRDSAKNTVYLQMNSLKPEDTAVYYCATDQTLFGVCRGIATPDPGFWGQGTLVTVSS ? Thanks!
Out: 1.26e-09

Provenance of the data: patent US20180355050A1
